Data provenance: patent US10752609B2

molecular target: GSK3α (Homo sapiens, UniProt P49840)
Sequence (P49840 whole entry, species assumed): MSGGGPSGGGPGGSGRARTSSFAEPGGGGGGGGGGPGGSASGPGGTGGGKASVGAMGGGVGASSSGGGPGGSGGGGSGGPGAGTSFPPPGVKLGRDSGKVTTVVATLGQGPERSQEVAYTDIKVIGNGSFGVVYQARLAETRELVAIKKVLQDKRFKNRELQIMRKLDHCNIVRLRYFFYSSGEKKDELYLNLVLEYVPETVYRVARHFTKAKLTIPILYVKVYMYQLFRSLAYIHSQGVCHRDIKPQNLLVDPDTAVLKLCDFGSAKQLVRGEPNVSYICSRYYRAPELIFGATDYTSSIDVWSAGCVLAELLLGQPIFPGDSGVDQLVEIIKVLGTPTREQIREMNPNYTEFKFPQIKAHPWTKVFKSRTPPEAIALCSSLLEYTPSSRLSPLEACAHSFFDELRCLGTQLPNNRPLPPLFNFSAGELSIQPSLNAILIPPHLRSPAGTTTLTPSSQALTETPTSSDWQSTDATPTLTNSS
property-measured: log10(IC50) (log10 of the value in nM)
The base-10 logarithm of IC50, taken with IC50 in nM, is what appears here.

These solved cases illustrate the format of a correct answer.
compound	endpoint-value
O=C(Nc1cnccc1-c1ccc(F)cc1F)c1ccnc(Nc2ccc(F)cc2F)n1	-0.01
O=C(Nc1cncc(-c2ccccc2F)c1)c1ccnc(Nc2ccc(F)nc2)n1	0.32
O=C(Nc1cnccc1OCC(F)(F)F)c1ccnc(NC2CCCOC2)n1 (stereo not drawn)	-0.39
O=C(Nc1cncnc1OCC(F)(F)F)c1ccnc(NCC2CCC2)n1	0.00
O=C(Nc1cnccc1-c1ccccc1)c1ccnc(Nc2cc(F)c(Cl)cc2F)n1	-0.25

Sample O=C(Nc1cnccc1-c1ccc(F)cc1)c1ccnc(Nc2ccc(Cl)cc2)n1 — what was its log10(IC50)?
-0.36

Sample O=C(Nc1cncnc1NCC1CC1)c1ccnc(Nc2ccccc2)n1 — what was its log10(IC50)?
1.99

====

List of IC50 tested on GSK3α (Homo sapiens, UniProt P49840).
Numbers only here, please. The scale is pM.

These solved cases illustrate the format of a correct answer.
compound	IC50 (pM)
COc1ccc(Nc2nccc(C(=O)Nc3cncnc3Nc3ccc(OC)cc3)n2)cc1 [Example 78]	15000
O=C(Nc1cnccc1-c1ccc(F)cc1F)c1ccnc(Nc2ccc3ccccc3c2)n1 [Example 149]	360
N#Cc1ccc(Nc2nccc(C(=O)Nc3cnccc3-c3ccccc3)n2)cc1C(F)(F)F [Example 28]	900
O=C(Nc1cnccc1OCC(F)(F)F)c1ccnc(Nc2ccc(OC(F)(F)F)cc2)n1 [Example 59]	210
O=C(Nc1cnccc1-c1ccccc1)c1ccnc(Nc2ccc(Cl)cc2F)n1 [Example 26]	330
O=C(Nc1cnc(F)cc1N1CCOCC1)c1ccnc(NC2COC2)n1 [Example 175]	27000

Notebook entry, GSK3α (Homo sapiens, UniProt P49840) assay: IC50 of COc1ccc(Nc2nccc(C(=O)Nc3cnccc3-c3ccccc3)n2)cc1F [Example 19] = ?
170

Notebook entry, GSK3α (Homo sapiens, UniProt P49840) assay: IC50 of O=C(Nc1cnccc1-c1ccc(F)cc1F)c1ccnc(Nc2cccnn2)n1 [Example 164] = ?
780000

====

Measured IC50, listed per entry.
biological target: GSK3β (Homo sapiens, UniProt P49841); assay: GSK3β kinase assay (Caliper LabChip3000 mobility shift, fluoresceinated peptide substrate); type: biochemical; conditions: 250 pM enzyme, 20 uM ATP, 1.5 uM peptide, 20 hours room temperature; first value of cell GSK3β/GSK3α; read-out: GSK3β (nM), IC50
Sequence (P49841 whole entry, species assumed): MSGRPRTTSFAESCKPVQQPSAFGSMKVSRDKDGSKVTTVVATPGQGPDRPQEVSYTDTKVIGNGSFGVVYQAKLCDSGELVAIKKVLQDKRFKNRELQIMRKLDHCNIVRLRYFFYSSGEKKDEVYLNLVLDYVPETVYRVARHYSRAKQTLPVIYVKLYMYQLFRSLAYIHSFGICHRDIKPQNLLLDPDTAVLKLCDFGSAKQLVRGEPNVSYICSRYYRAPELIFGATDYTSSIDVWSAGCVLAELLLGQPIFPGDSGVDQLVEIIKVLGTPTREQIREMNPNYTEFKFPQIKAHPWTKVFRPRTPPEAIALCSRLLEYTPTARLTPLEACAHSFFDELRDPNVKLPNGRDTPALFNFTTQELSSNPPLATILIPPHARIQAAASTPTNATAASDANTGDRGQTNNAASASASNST

compound	property-measured	endpoint-value
O=C(Nc1cnccc1OCC(F)(F)F)c1ccnc(NCc2ccccc2C(F)(F)F)n1	IC50	4.1 nM

Sample O=C(Nc1cnccc1-c1ccccc1)c1ccnc(Nc2ccc(Cl)cc2Cl)n1 — what was its IC50?
6.2 nM

Sample CC(Nc1nccc(C(=O)Nc2cnccc2OCC(F)(F)F)n1)C12CC3CC(CC(C3)C1)C2 (centres unmarked) — what was its IC50?
33 nM

Sample O=C(Nc1cnccc1OCC(F)(F)F)c1ccnc(NCc2ccccc2F)n1 — what was its IC50?
1.5 nM

Sample O=C(Nc1cnccc1-c1ccc(F)cc1)c1ccnc(Nc2ccc(F)cc2)n1 — what was its IC50?
0.26 nM

Sample O=C(Nc1cnccc1OCC(F)(F)F)c1ccnc(NCc2ccc(C(F)(F)F)cc2)n1 — what was its IC50?
2.8 nM

Sample O=C(Nc1cncnc1)c1ccnc(Nc2cccc(-c3ccccc3)n2)n1 — what was its IC50?
8.9 nM

Sample O=C(Nc1cnccc1OCC(F)(F)F)c1ccnc(Nc2ccc(F)nc2)n1 — what was its IC50?
0.24 nM
